Conditions: in n-butanol, 303.15 K
READOUT_TYPE: solubility (mole fraction)
Answers are plain numbers.

Entry "Cc1nc2n(c(=O)c1CCN1CCC(c3noc4cc(F)ccc34)CC1)CCCC2" : reported solubility (mole fraction) = ?
0.00479

###

Conditions: in n-butyl acetate, 293.15 K
READOUT_TYPE: solubility (mole fraction)
Answers are plain numbers.

Entry "Cc1nc2n(c(=O)c1CCN1CCC(c3noc4cc(F)ccc34)CC1)CCCC2" : reported solubility (mole fraction) = ?
0.00189

###

Details: in n-butyl acetate, 278.15 K
READOUT_TYPE: solubility (mole fraction)
Answers are plain numbers.

Entry "Cc1nc2n(c(=O)c1CCN1CCC(c3noc4cc(F)ccc34)CC1)CCCC2" : reported solubility (mole fraction) = ?
0.00112
